Where these numbers come from: patent US20230349919A1

tested system: human IL-6Rα (hIL-6Rα), barcoded negative control antigen (human) (UniProt P08887)
Sequence (P08887 20-358 limits assumed): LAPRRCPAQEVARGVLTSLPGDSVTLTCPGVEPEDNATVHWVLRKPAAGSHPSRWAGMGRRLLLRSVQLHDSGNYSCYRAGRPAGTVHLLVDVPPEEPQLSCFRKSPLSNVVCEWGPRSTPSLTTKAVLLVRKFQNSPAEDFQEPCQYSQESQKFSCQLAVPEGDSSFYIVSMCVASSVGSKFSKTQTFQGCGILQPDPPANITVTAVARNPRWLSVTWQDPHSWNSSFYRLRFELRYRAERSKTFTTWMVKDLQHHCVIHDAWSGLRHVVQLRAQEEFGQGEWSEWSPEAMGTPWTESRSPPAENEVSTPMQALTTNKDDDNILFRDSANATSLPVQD
experiment: barcoded-antigen count on source cell (scRNA-seq)
attribute measured: REGN78.L15 ab raw (counts)

binder="Table 1 Line # 30 antibody (SP_B_cell) (antibody, human IgG4, V domains shown) VH: EVQLVESGGGMVQPGRSLRLSCAASGFTFDDYAMHWVRQAPGKGLEWVSGIKWNGGNIGYADSVKDRFTISRDNAKNSLFLQMNSLRAEDAALYSCAKDIGGSQYALDVWGQGTTVTVSS VL: DIQMTQSPSSLSASVGDRVTITCRASLSIGSYLNWYQKKPGKAPKLLIFVASSLQGGVSSRFSGSGSGTDFTLTISSLQPEDFATYYCQQTYSTPFTFGPGTKVDIK" attribute_measured="REGN78.L15 ab raw" value_units=counts val=179
binder="Table 1 Line # 49 antibody (SP_Plasma_cell) (antibody, human IgG4, V domains shown) VH: EVHLLESGGGFIQPGGSLRLSCAASGFTFSTYAMNWVRLAPGKGLEWVSTISGSGGFTSYTDSVQGRFTISRDNSKNKLYLQINNLTAEDTAVYYCAKDRRIVGATGFDYWGQGALVTVSS VL: DIQMTQSPSSLSASAGDRVTITCRASQSISSYLNWYQQKPGKAPKLLIYAASSLQSGVPSRFSGSGSGTDFTLTISSLQPEDSATYYCQQSYGFHTFGQGTRLEIK" attribute_measured="REGN78.L15 ab raw" value_units=counts val=2
binder="Table 1 Line # 53 antibody (SP_Plasma_cell) (antibody, human IgG4, V domains shown) VH: EIQLVESGGGLVQPGRSLRLSCAASGFTFDDYAMHWVRQAPGKGLEWVSGINWNNGSLGYADSVKGRFTISRDNAKNSLYLQMNSLRTEDTALYYCVKDTGSWASYYGMDVWGHGTTVTVSS VL: DIQMTQSPSSLSASIGDRVTITCRASQGIRNDLGWYQQKPGKAPKRLIYAASSLQSGVPSRFSGSGSGTEFTLTISSLQPEDFATYYCLQHNSYPYTFGQGTKLEIK" attribute_measured="REGN78.L15 ab raw" value_units=counts val=5
